Kindly state Ki for each of the entries shown.
target: rat liver 11β HSD (Rattus norvegicus); construct: for the 11β HSDs isolated from rat liver; assay: rat liver 11β HSD oxidative activity, corticosterone utilization (Lineweaver-Burk kinetics); conditions: purified rat liver 11β HSD, oxidative activity, NADP+, 1,2,6,7-3H-corticosterone; with regard to the glucocorticoid substrate; read-out: Kis
Sequence (P16232 whole entry): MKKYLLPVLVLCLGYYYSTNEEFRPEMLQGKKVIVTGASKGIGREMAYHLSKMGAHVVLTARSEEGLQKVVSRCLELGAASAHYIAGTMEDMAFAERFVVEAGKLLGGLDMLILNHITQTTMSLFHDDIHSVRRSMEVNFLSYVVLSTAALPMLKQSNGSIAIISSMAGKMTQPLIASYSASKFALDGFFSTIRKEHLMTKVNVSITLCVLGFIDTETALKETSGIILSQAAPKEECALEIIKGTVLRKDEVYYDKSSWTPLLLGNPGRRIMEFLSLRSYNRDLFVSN
Give bare numbers, in µM.

structure_string	system_name	Ki (µM)
CC(C)[C@@H]1CC[C@@H](C)C[C@@H]1O	rat liver 11β HSD (Rattus norvegicus)	35

Could you now consider this next molecule?
// query Ki value for entry CC(C)[C@H]1CC[C@@H](C)C[C@@H]1O
71
